- Protocol Summary: E. coli acrAB mutant growth effects, primary screen, E. coli filamentation inducers, strain DRC39, OD650, 48 h (AID 1179);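 further: screen aims at cell division blockers that make cells filament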
- Run Conditions: E. coli DRC39 delta-acrAB growth, higher = more signal, called active from +8 up or from −8 down
Entry flag: true if z-score reaches 0.2; false if it does not.

INSERT INTO assay_data (molecule, cat) VALUES
  ('COc1ccc(NC(=O)O[C@H]2[C@H](OC(=O)Nc3ccc4c(c3)OCO4)[C@H](OC(=O)Nc3ccc4c(c3)OCO4)[C@@H](OC)O[C@@H]2CO)cc1', 'false'),
  ('CN1C(=O)C2C=CC(C(O)c3ccc(-c4ccccc4)s3)N(Nc3ccccc3)C2C1=O (stereo not given)', 'false'),
  ('COc1ccc([Si](C)(C)[C@H]2[C@H](CC(=O)N3Cc4ccccc4C[C@H]3CO)O[C@@]3(C(=O)N(Cc4cccc(N5C(=O)c6cccc7cccc5c67)c4)c4ccccc43)[C@@H]2C)cc1', 'true'),
  ('C=CCC(OC(C)=O)[C@@H]1[C@@H](N(Cc2cc3ccccc3o2)C(=O)Cc2ccc(OC)cc2)c2cc(OCCCO)ccc2N1C(=O)Cc1ccc(OC)cc1 (stereo not given in full)', 'false'),
  ('CCOC(=O)C[C@H]1[C@H](OC(=O)c2cc3ccccc3oc2=O)[C@@H](NC(=O)C2CCCCC2)c2cc(OCCCO)ccc2N1C(=O)Cc1ccc(OC)cc1', 'false'),
  ('C[C@H]1C2[C@H](Cc3ccccc3)NC(=O)[C@]23C(=O)NCC(=O)N2CCC[C@H]2C(=O)NC/C=C\C/C=C/C3[C@@H]2O[C@]12C (stereo not given in full)', 'true'),
  ('Cc1ccc(S[C@]2(C(=O)NCC(F)(F)F)CC(=O)N(C3CCCCC3)[C@@H]2c2ccc(CO)cc2)cc1', 'true'),
  ('C=C(COC)/C(=C/C[C@H](OC(=O)c1ccncc1)c1cccc(OCCO)c1)c1cnc2ccccc2c1', 'false'),
  ('COc1ccc([Si](C)(C)[C@H]2[C@H](CCn3cc([C@H](O)c4ccccc4)nn3)O[C@@]3(C(=O)N(C)c4c(Br)cc(C)cc43)[C@@H]2C)cc1', 'false'),
  ('CC(=O)NCCCC[C@@H]1NC(=O)[C@H]2C[C@@H](C(=O)NCCCCCC[N+](C)(C)C)[C@@H](c3ccc(O)cc3)N2C1=O', 'false'),
  ('COc1ccc([Si](C)(C)[C@H]2[C@H](CCO)O[C@@]3(C(=O)N(Cc4ccccc4)c4ccc(N(C=O)c5ccccc5)cc43)[C@@H]2C)cc1', 'true'),
  ('CCCCC=C[C@@H](NC(=O)c1ccc(C(F)(F)F)cc1)c1ccccc1', 'true'),
  ('CN(C)C(=O)[C@]1(Cc2ccccc2CN=[N+]=[N-])N=C(c2ccc(OCCCO)cc2)O[C@@H]1c1ccccc1N=[N+]=[N-]', 'true'),
  ('C=CC[C@]1(C(=O)NCc2ccccc2)COC(c2ccc(OCCCO)cc2)=N1', 'false'),
  ('C/C=C/CN(C(=O)C#Cc1ccccc1)[C@H](CO[Si](C)(C)C(C)(C)C)c1ccccc1', 'true');
